test system: OVCAR-8 complex spheroid, growth inhibition; assay: Anticancer human tumor OVCAR-8 cell line growth inhibition [Asc]; conditions: second compound 0.0316 µM; first compound 0.316 µM; hits give low values;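 further: spheroids exposed to agents for 7 days before readout; percent viability relative to DMSO vehicle wells taken as 100%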
compounds and their reported viability, T/C
measured.metric: viability, T/C (%)

>>> measured_result("C=CC(=O)N1CCN(c2nc(=O)n(-c3c(C)ccnc3C(C)C)c3nc(-c4c(O)cccc4F)c(F)cc23)C(C)C1 (configuration not stated) + Cc1c(S(C)(=O)=O)c(-c2cc(F)cc(N3CCN(c4ccc(NS(=O)(=O)c5ccc(NC(CCN6CCC(C(=O)OCCCP(=O)(O)O)CC6)CSc6ccccc6)c(S(=O)(=O)C(F)(F)F)c5)cc4)CC3)c2)c(-c2ccc(Cl)cc2)n1C(C)C")
93.3
>>> measured_result("O=C(c1ccc(F)c(F)c1Nc1ccc(I)cc1F)N1CC(O)([C@@H]2CCCCN2)C1 + CNC(C)C(=O)NC1CN(S(=O)(=O)c2cccc(S(=O)(=O)N3CCC4CCC(C(=O)NC(c5ccccc5)c5ccccc5)N4C(=O)C(NC(=O)C(C)NC)C3)c2)CCC2CCC(C(=O)NC(c3ccccc3)c3ccccc3)N2C1=O")
216
>>> measured_result("COc1c(OCCCN2CCOCC2)ccc2c3n(c(=NC(=O)c4cnc(N)nc4)nc12)CCN3 + Cc1c(S(C)(=O)=O)c(-c2cc(F)cc(N3CCN(c4ccc(NS(=O)(=O)c5ccc(NC(CCN6CCC(C(=O)OCCCP(=O)(O)O)CC6)CSc6ccccc6)c(S(=O)(=O)C(F)(F)F)c5)cc4)CC3)c2)c(-c2ccc(Cl)cc2)n1C(C)C")
149
>>> measured_result("C#Cc1c(F)ccc2cc(O)cc(-c3ncc4c(N5CC6CCC(C5)N6)nc(OCC56CCCN5CC(F)C6)nc4c3F)c12 (configuration not stated) + CNC(C)C(=O)NC1CN(S(=O)(=O)c2cccc(S(=O)(=O)N3CCC4CCC(C(=O)NC(c5ccccc5)c5ccccc5)N4C(=O)C(NC(=O)C(C)NC)C3)c2)CCC2CCC(C(=O)NC(c3ccccc3)c3ccccc3)N2C1=O")
83
>>> measured_result("CCN1CCN(Cc2ccc(Nc3ncc(F)c(-c4cc(F)c5nc(C)n(C(C)C)c5c4)n3)nc2)CC1 + Cc1c(S(C)(=O)=O)c(-c2cc(F)cc(N3CCN(c4ccc(NS(=O)(=O)c5ccc(NC(CCN6CCC(C(=O)OCCCP(=O)(O)O)CC6)CSc6ccccc6)c(S(=O)(=O)C(F)(F)F)c5)cc4)CC3)c2)c(-c2ccc(Cl)cc2)n1C(C)C")
112
>>> measured_result("C#Cc1c(F)ccc2cc(O)cc(-c3ncc4c(N5CC6CCC(C5)N6)nc(OCC56CCCN5CC(F)C6)nc4c3F)c12 (configuration not stated) + Cc1c(S(C)(=O)=O)c(-c2cc(F)cc(N3CCN(c4ccc(NS(=O)(=O)c5ccc(NC(CCN6CCC(C(=O)OCCCP(=O)(O)O)CC6)CSc6ccccc6)c(S(=O)(=O)C(F)(F)F)c5)cc4)CC3)c2)c(-c2ccc(Cl)cc2)n1C(C)C")
87.3
>>> measured_result("C=C(F)C(=O)N1CCN(c2nc(OCC3CCCN3C)nc3c2CCN(c2cccc4cccc(Cl)c24)C3)CC1CC#N (configuration not stated) + CNC(C)C(=O)NC1CN(S(=O)(=O)c2cccc(S(=O)(=O)N3CCC4CCC(C(=O)NC(c5ccccc5)c5ccccc5)N4C(=O)C(NC(=O)C(C)NC)C3)c2)CCC2CCC(C(=O)NC(c3ccccc3)c3ccccc3)N2C1=O")
96.1
